B1: TPR t1 (parent)
chain: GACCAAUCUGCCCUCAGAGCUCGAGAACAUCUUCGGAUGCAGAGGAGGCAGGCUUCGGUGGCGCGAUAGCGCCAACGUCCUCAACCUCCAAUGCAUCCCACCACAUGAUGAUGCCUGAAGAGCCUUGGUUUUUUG

Variants of: B1
method-summary: polymerase ribozyme fitness, log enrichment relative to wild type (log ratio); higher = more active; in vitro selection for triplet polymerase activity
Mark Satisfied for reported polymerase ribozyme fitness (log ratio) of -3 or greater; mark Not satisfied for anything smaller.

In [3]: df
Out[3]:
                           var       category
0  C72U U78C G117U G122A U130G      Satisfied
1         C49U G61U U81A C115G      Satisfied
2              G52A G93A U130G      Satisfied
3                    A26C G69C  Not satisfied
4               C8U C22U A119U      Satisfied
5                  A111C G127A      Satisfied
